From: patent US7582786B2

- measurement.protocol: Catalase activity, conversion of H2O2 to oxygen, polarographic oxygen electrode (Example 2)
- Format: biochemical
- reported.conditions: relative to C7 (C7 = 100)
Parameter: Catalase endpt.. Scope: all listed entries.
Response field accepts a number only; no unit should be typed.

Observe how each entry below is paired with its result.
CCOc1cccc2c1[O][Mn]([Cl])[O]c1c(cccc1OCC)C=NCCN=C2: 256
COc1cccc2c1[O][Mn]([Cl])[O]c1c(cccc1OC)C=Nc1ncccc1N=C2: 830
Fc1cccc2c1[O][Mn]([Cl])[O]c1c(F)cccc1C=NCCN=C2: 104
CC(=O)[O][Mn]1[O]c2ccc3ccccc3c2C=Nc2ccccc2N=Cc2c(ccc3ccccc23)[O]1: 22
COc1ccc2c(c1)[O][Mn]([O]C(C)=O)[O]c1cc(OC)ccc1C=NCCN=C2: 44

[in] Look up Catalase endpt. for this compound: COc1cccc2c1[O][Mn]([O]C(C)=O)[O]c1c(cccc1OC)C=NCCN=C2
[out] 319

[in] Name the recorded Catalase endpt. for COc1ccc2c(c1)[O][Mn]([Cl])[O]c1cc(OC)ccc1C=NCCN=C2 .
[out] 44

[in] Suppose we examine the compound COc1ccc2c(c1)C=NCCN=Cc1cc(OC)ccc1[O][Mn]([Cl])[O]2 ; what Catalase endpt. value has been reported?
[out] 311

[in] If you can, please state the reported Catalase endpt. value of CC(=O)[O][Mn]1[O]c2c(F)cccc2C=NCCN=Cc2cccc(F)c2[O]1 .
[out] 104

[in] Give the measured Catalase endpt. of COc1cc(OC)c2c(c1)[O][Mn]([O]C(C)=O)[O]c1cc(OC)cc(OC)c1C=NCCN=C2 .
[out] 41

[in] // Catalase endpt. lookup, key: [O]=[V]1[O]c2ccccc2C=NCCN=Cc2ccccc2[O]1
[out] 0

[in] What value of measured Catalase endpt. is listed for [Cl][Mn]1[O]c2ccccc2C=NCCN=Cc2ccccc2[O]1 ?
[out] 100

[in] Would you kindly share the measured Catalase endpt. for CC(=O)[O][Mn]1[O]c2ccccc2C=Nc2ccccc2N=Cc2ccccc2[O]1 ?
[out] 398

[in] For the compound COc1cc2c(c(OC)c1)[O][Mn]([O]C(C)=O)[O]c1c(cc(OC)cc1OC)C=NCCN=C2 , what Catalase endpt. is on record?
[out] 379

[in] Request the reported Catalase endpt. associated with COc1cccc2c1[O][Mn]([Cl])[O]c1c(cccc1OC)C=NC1CCCCC1N=C2 (stereo not drawn)
[out] 285
